From: patent US20220119522A1

Recorded fold over background (A450), one value per entry.
- TARGET OR TEST SYSTEM: T1, mouse TREM2 full length stalk region peptide (aa 131-169) (mouse, UniProt Q99NH8 131-169, biotinylated (site not stated))
- T1 peptide (looked up): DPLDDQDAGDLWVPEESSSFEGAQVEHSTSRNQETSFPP
- TEST SUMMARY: ELISA on biotinylated peptide captured by streptavidin; A450 normalised to isotype control
// note: answer is a bare numeric in fold

# annotated cases, reported fold over background (A450) shown
1) CL0020161 (antibody, V domains shown, also called Clone CL0020161) VH: EVQLVESGGGLVQPGRSMKLSCAALGFTFSNYYMAWVRQAPRKGLEWVASISTGGDNTYYRDSVKGRFTISRDNAKSTLYMQMDSLRSEDTATYYCVRSFIVGTTGYYFDYWGQGVMVTVSS VL: DIVLTQSPALAVSLGQRATISCKTNQNVDYYGNNYMHWYQQTPGQQPKLLIYFASNLASGIPARFSGRGSGTDFTLTIDPVEADDTATYYCQQSRNLPTFGGGTKLELK: 1.2
2) CL0020096 (antibody, V domains shown, also called Clone CL0020096) VH: QIQLVQSGPELRKPGETVKISCKASGYTFTTYGMSWVKQAPGKGLKWMGWINTYSGLPRHSDDFKGRFAFSLETSASTAYLQINNLKNEDTATYFCAREVYYGSRKTAWFAYWGQGTLVTVSA VL: DLVMSQSPSSLAVSVGERVTMSCKSSQSLLYSNDQKNYLAWYQQIPGQSPKLLIYWASTRESGVPDRFTGSGSGTDFTLTISSVKAEDLAVYFCQQYYSYPPTFGAGTKLELK: 45
3) CL0020309 (antibody, V domains shown, also called Clone CL0020309) VH: QVQLKQSGPSLVQPSQSLSITCTVSGFSLTSYGVQWVRQSPGKGLEWLGVIWTGGTTDFNAAFKSRLSITKDNSKSQVFFKMNSLQADDSAIYYCAKIGFHSAVDYWGQGTSVTVSS VL: DVLMTQTPLSLPVSLGDQASISCRSSQNIVHSNGNTYLEWYLQKPGQSPKLLIYKVSNRFSGVPDRFSGSGSGTDFTLKINRVEAEDLGLYYCFQGSHIPFTFGSGTQLEIK: 6.6
4) CL0020120 (antibody, V domains shown, also called Clone CL0020120) VH: EVQLQQSGPELVRTGASVKISCRASSYSFTDNYIHWVKQTHGRSLEWIGYISGYTGATSYNQKFKGKATFTVDTSSSTAYMQFNSLTSEDSAVYYCARSTMIAPYGMDYWGQGTSVTVSS VL: DIVMTQSHKFMSTSVGDRVNITCKASQDVVTAVAWYQQKPGQSPKLLIYWASTRHTGVPDRFTGSGSGTDFTLTISNVQSEDLADYFCQQYSRYPLTFGAGTKLELK: 1.2

Consider now this further binder.
Incoming: Which fold over background (A450) is reported for this binder? CL0020123 (antibody, V domains shown, also called Clone CL0020123) VH: EVQLQQSGAELVRSGASVKLSCTASGFSIEDFYIHWVKQRPEQGLEWIGWIDPENGDSKYAPKFQGKATMTADTSSNTAYLHLSSLTSEDTAVYYCHADHGNYGSTMDYWGQGTSVTVSS VL: DIQMNQSPSSLSASLGDTVTITCHASQHINVWLSWYQQKPGDHPKLLIYKASNLHTGVPSRFSGSGSGTGFTLTISSLQPEDIATYYCQQGQTYPRTFGGGTKLEIK
Outgoing: 1
